Numbers sourced from ChEMBL document CHEMBL4190328.

assayedTarget: Histone deacetylase 2 (Homo sapiens, UniProt Q92769)
Sequence (Q92769 whole entry): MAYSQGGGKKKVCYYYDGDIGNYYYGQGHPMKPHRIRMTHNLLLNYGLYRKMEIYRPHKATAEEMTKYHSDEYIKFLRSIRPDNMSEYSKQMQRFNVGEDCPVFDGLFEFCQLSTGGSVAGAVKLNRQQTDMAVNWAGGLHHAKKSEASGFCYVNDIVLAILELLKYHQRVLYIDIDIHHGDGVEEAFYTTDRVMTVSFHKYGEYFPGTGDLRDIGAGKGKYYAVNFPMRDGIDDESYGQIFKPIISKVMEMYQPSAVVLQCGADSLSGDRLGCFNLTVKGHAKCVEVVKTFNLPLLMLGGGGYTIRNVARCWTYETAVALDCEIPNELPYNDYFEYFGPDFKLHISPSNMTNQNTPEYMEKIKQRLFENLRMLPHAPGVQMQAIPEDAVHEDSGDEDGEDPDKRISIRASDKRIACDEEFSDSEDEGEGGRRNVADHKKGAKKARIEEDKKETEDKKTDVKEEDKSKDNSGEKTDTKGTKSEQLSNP
assayComment: Inhibition of recombinant human full-length C-terminal His-tagged HDAC2 expressed in baculovirus infected Sf9 insect cells using Boc-L-Lys(Ac)-AMC as substrate preincubated for 5 mins followed by substrate addition measured after 35 mins by fluorescence assay
parameterMeasured: IC50

Give the reported IC50 for COc1ccc(C2c3ccccc3CCN2CCC(=O)NO)cc1 (stereo unspecified) (system: Histone deacetylase 2 (Homo sapiens, UniProt Q92769)).
> 100 µM

What about this compound? O=C(CCN1CCc2ccccc2C1C1CCCCC1)NO (stereo unspecified)
> 100 µM

What about this compound? O=C(CN1CCc2ccccc2C1c1ccccc1)NO (stereo unspecified)
> 100 µM

What about this compound? O=C(CCN1CCc2ccccc2C1)NO
> 100 µM

What about this compound? O=C(CCNCc1ccccc1)NO
> 100 µM

What about this compound? O=C(CCN(Cc1ccccc1)Cc1ccccc1)NO
> 100 µM

What about this compound? O=C(CCN1CCc2ccccc2C1c1cccc(C(F)(F)F)c1)NO (stereo unspecified)
> 100 µM

What about this compound? O=C(CCN1CCc2ccccc2C1c1ccc(C(F)(F)F)cc1)NO (stereo unspecified)
> 100 µM

What about this compound? CC(C)(C)c1ccc(C2c3ccccc3CCN2CCC(=O)NO)cc1 (stereo unspecified)
29 µM

What about this compound? O=C(CCN1CCc2ccccc2C1c1ccc(-c2ccccc2)cc1)NO (stereo unspecified)
47 µM

What about this compound? O=C(CCCCCCN1CCc2ccccc2C1)NO
0.33 µM
